# Fold change to WT CD80 listing for each entry below
- assayed system: human CTLA-4 (human) (UniProt P16410)
- Sequence (P16410 36-223): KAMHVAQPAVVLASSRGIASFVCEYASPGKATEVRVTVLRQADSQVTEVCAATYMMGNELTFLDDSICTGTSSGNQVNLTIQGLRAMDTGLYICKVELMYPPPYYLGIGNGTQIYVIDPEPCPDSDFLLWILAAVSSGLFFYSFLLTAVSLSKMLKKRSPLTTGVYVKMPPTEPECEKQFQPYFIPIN
- measurement notes: flow cytometry, CHO cells expressing CTLA4
# unit: fold | format: bare number

>  <binder>
CD80 T13R/Q33R/E35D/M38I/M47L/V68M/E95V/L97Q IgV-Fc (Fc fusion) VIHVTKEVKEVARLSCGHNVSVEELAQTRIYWRKDKKIVLTMMSGDLNIWPEYKNRTIFDITNNLSIMILALRPSDEGTYECVVLKYEKDAFKRVHQAEVTLSVKAD

>  <readout unit>
fold

>  <value reported>
11.8

$$$$
>  <binder>
CD80 T13R/Q33R/E35D/M47L/V68M IgV-Fc (Fc fusion) VIHVTKEVKEVARLSCGHNVSVEELAQTRIYWRKDKKMVLTMMSGDLNIWPEYKNRTIFDITNNLSIMILALRPSDEGTYECVVLKYEKDAFKREHLAEVTLSVKAD

>  <readout unit>
fold

>  <value reported>
11.8

$$$$
>  <binder>
CD80 H18Y/E35D/V68M/T79M/L85M IgV-Fc (Fc fusion) VIHVTKEVKEVATLSCGYNVSVEELAQTRIYWQKDKKMVLTMMSGDMNIWPEYKNRTIFDITNNLSIMILALRPSDEGMYECVVMKYEKDAFKREHLAEVTLSVKAD

>  <readout unit>
fold

>  <value reported>
9.3

$$$$

Kindly note the recorded Fold change to WT CD80 for CD80 E35D/M47L/Y53F/V68M/A71G/K93R/E95V IgV-Fc (Fc fusion) VIHVTKEVKEVATLSCGHNVSVEELAQTRIYWQKDKKMVLTMMSGDLNIWPEFKNRTIFDITNNLSIMILGLRPSDEGTYECVVLKYEKDAFRRVHLAEVTLSVKAD , which is 9.1

Fold change to WT CD80 for CD80 E35D/M47V/N48K/V68M/A71G/L85M IgV-Fc (Fc fusion) VIHVTKEVKEVATLSCGHNVSVEELAQTRIYWQKDKKMVLTMMSGDVKIWPEYKNRTIFDITNNLSIMILGLRPSDEGTYECVVMKYEKDAFKREHLAEVTLSVKAD is 9.5
